- test description: viability loss with induced miR-34 in A549 – imaging, A549 dox-inducible miR-34, nuclei and caspase counts, primary screen (AID 1347080); further: test concentration not given here
- measurement setup: A549 miR-34 inducible, Hoechst nuclei count, 48 h; stronger effect = lower value; cell number ratio, induced over uninduced
This listing pairs compounds with measured fold change.
readout label: fold change

compound	readout label	value measured
c1ccc(CN2CCC(Nc3ncnc4sccc34)CC2)nc1	fold change	0.895
O=C(Nc1ccc(I)cc1)NC1CCCCC1	fold change	0.864
CC(=O)O[C@@]1(C(C)=O)CC[C@H]2[C@@H]3CCC4=CC(=O)CCC4=C3C(c3ccc(N(C)C)cc3)C[C@@]21C (stereo not given in full)	fold change	1.04
O=C(Cn1nc(Cc2ccccc2)c2ccccc2c1=O)NCCc1ccco1	fold change	0.937
C[C@@]12CC[C@H]3c4ccc(O)cc4CC(CCCCCCCCCS(=O)CCCC(F)(F)C(F)(F)F)[C@H]3[C@@H]1CCC2O (stereo not given in full)	fold change	0.975
CC1COc2c(C3(N)CC3)c(F)cc3c(=O)c(C(=O)O)cn1c23 (stereo not given)	fold change	0.951
NC/C=C\C(=O)O	fold change	1.03
O=C(c1ccccc1)c1ccc2nc(NC(=O)c3csc(C4CCN(c5ncnc6ccsc56)CC4)n3)[nH]c2c1	fold change	1.1
CO[C@@H]1[C@@H](O[C@@H]2O[C@H](C)[C@@H](O[C@H]3C[C@@](C)(OC(=O)CC(C)C)[C@@H](O)[C@H](C)O3)[C@H](N(C)C)[C@H]2O)[C@@H](CC=O)C[C@@H](C)[C@@H](O)/C=C/C=C/C[C@@H](C)OC(=O)C[C@H]1OC(C)=O	fold change	0.924
O=C(CCc1ccncc1)NNC(=O)N1Cc2ccccc2Oc2ccc(Cl)cc21	fold change	1.04

###

This listing pairs compounds with measured fluorescence ratio (interference).
- test description: compounds altering Cy5-DNA-NS3h complex signal – biochemical, LOPAC1280, artefact control for HCV NS3 helicase inhibitor project (AID 687037)
- measurement setup: Cy5-DNA-NS3h complex fluorescence interference counterscreen

compound	fluorescence ratio (interference)
C=CCN1CCc2c(cc(O)c(O)c2Cl)C(c2ccccc2)C1 (configuration not stated)	1
Nc1ccc(N2C(=O)c3ccccc3C2=O)c(Cl)c1	1
Cc1nc(N=Nc2ccc(S(=O)(=O)O)cc2S(=O)(=O)O)c(COP(=O)(O)O)c(C=O)c1O	1
CC(N)(C(=O)O)c1ccc(C(=O)O)cc1 (configuration not stated)	1
CCOC(=O)C1=C(C)NC(C)=C(C(=O)OCC)C1c1c(F)c(F)c(F)c(F)c1F	0.9
NC1(C(=O)O)CCCCC1	1
Cn1ccnc1	0.9
N=c1c[n+](N2CCOCC2)[n-]o1	1
Nc1c(S(=O)(=O)O)cc(Nc2ccc(Nc3nc(Cl)nc(Nc4ccc(S(=O)(=O)O)cc4)n3)c(S(=O)(=O)O)c2)c2c1C(=O)c1ccccc1C2=O	0.7
CN1CCc2cc(NC(=O)Nc3cccnc3)ccc21	1
CC(=O)O[C@H]1Cc2ccccc2N(C(N)=O)c2ccccc21	1
Nc1nc2c(nc(Br)n2C2OC3COP(=O)(O)O[C@@H]3C2O)c(=O)[nH]1 (some centres not stated)	1
CNCC[C@H](Oc1ccc(C(F)(F)F)cc1)c1ccccc1	1
Cn1c(=O)c2[nH]c(-c3ccccc3)nc2n(C)c1=O	1
CN1Cc2sccc2C(c2ccc(O)c(O)c2)C1 (configuration not stated)	1
O=C(c1ccc2c(c1)OCCO2)N1CCCCC1	1
Cc1cc(NC2CCCCC2)nc(-n2nc(C)cc2C)n1	1

###

- test description: MELAS cybrid and Rieske KO viability enhancers – cell-based, MELAS cybrids, Rieske KO mouse fibroblasts, CellTiter-Glo, primary screen (AID 1508586);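 further: test concentration not given here; z relative to plate mean and SD of compound and empty wells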
- measurement setup: Rieske KO mouse fibroblast survival, low glucose, CellTiter-Glo 72 h

compound	z-score
CC(C)N1CCN(C(=O)c2cc(-c3ccccc3)cc(S(=O)(=O)N3CCSCC3)c2)CC1	-0.306
O=C(NCC1CCCO1)[C@@H]1C[C@H](CN2CCOCC2)CN(Cc2ccc3ccccc3c2)C1 (stereo partly drawn)	-0.753
C[C@]12CC[C@H]3c4ccc(O)cc4CC[C@H]3[C@@H]1CC(O)C2O (stereo partly drawn)	-0.251
OC(COc1cccc2ncccc12)CN1CCN(C2c3ccccc3C3C(c4ccccc42)C3(F)F)CC1 (stereo not drawn)	0.74
CCOC(=O)c1nn(CCC(F)(F)F)c2c1CN(C(=O)c1ccco1)CC2	-0.531
Cc1ccc(Cl)cc1NC(=O)N[C@H]1C[C@H]2C(=O)N[C@H](C(C)C)C(=O)N2C1	0.0408
CC(C)CN(CC(O)C(Cc1ccccc1)NC(=O)OC1CCOC1)S(=O)(=O)c1ccc(N)cc1 (stereo not drawn)	0.463
COc1ccc(C2CC(=O)c3c(O)cc(O)cc3O2)cc1O (stereo not drawn)	0.0902

###

This listing pairs compounds with measured fold change.
- test description: viability loss with induced miR-34 in A549 – imaging, A549 dox-inducible miR-34, nuclei and caspase counts, primary screen (AID 1347080); further: test concentration not given here
- measurement setup: A549 miR-34 inducible, Hoechst nuclei count, 48 h; stronger effect = lower value; cell number ratio, induced over uninduced

compound	fold change
Cc1nc(C(=O)O)nn1-c1cc(Cl)cc(Cl)c1	0.931
c1ccc(CN(CCN(Cc2ccccn2)Cc2ccccn2)Cc2ccccn2)nc1	0.775
CCC(C)(C)C(=O)OC1CC(C)C=C2C=CC(C)C(CC[C@@H]3CC(O)CC(=O)O3)[C@H]21 (stereo not given in full)	1.33
CCCCC/C=C\C/C=C\CCCCCCCC(=O)O[C@@H](CO)COC(=O)CCCCCCCCCCCCCCCCC	0.999
CCn1ncc(NC(=O)Cn2ccc(-c3ncnn3C)n2)n1	0.85

###

- test description: viability loss with induced miR-34 in A549 – imaging, A549 dox-inducible miR-34, nuclei and caspase counts, primary screen (AID 1347080); further: test concentration not given here
- measurement setup: A549 miR-34 inducible, Hoechst nuclei count, 48 h; measured here: total cells without miR-34 induction
Field: label. Allowed values: Condition met (cell count < 8000) or Condition not met (cell count >= 8000).

compound	answer label
C#C[C@]1(O)CCC2C3CCC4=CC(=O)CCC4C3CC[C@@]21CC (some centres undefined)	Condition not met
CCC(=O)O[C@@]1(C(=O)CCl)[C@@H](C)C[C@H]2[C@@H]3CCC4=CC(=O)C=C[C@]4(C)[C@]3(F)[C@H](O)C[C@@]21C	Condition met
Cc1oc(S(=O)(=O)N2CCCCC2)cc1NC(=O)Nc1ccccc1	Condition met
COCC1CCCN(Cc2cccc(-c3nc(-c4cccnc4)cc(=O)[nH]3)c2)C1 (centres undefined)	Condition not met
CCCCC/C=C\C\C=C/C=C/C=C/[C@@H](SC[C@H](N)C(=O)NCC(=O)O)[C@@H](O)CCCC(=O)O	Condition met
OCCn1cc(-c2ccc3c(c2)CCC3=NO)c(-c2ccncc2)n1	Condition met
Cc1nc(N=Nc2ccc(S(=O)(=O)O)cc2S(=O)(=O)O)c(COP(=O)(O)O)c(C=O)c1O	Condition not met
[Li+]	Condition not met
Cc1[nH]c(C=C2C(=O)Nc3ccc(S(=O)(=O)N(C)c4cccc(Cl)c4)cc32)c(C)c1C(=O)N1CCN(C)CC1	Condition met
CCCCCC(=O)/C=C/[C@H]1[C@H](O)CC(=O)[C@@H]1C/C=C\CCCC(=O)O	Condition met
CN1CCN(Cc2cccc(-n3cccn3)c2)CC1CCO (centres undefined)	Condition not met
Nc1nc(CC(=O)Nc2ccc(CCNCC(O)c3ccccc3)cc2)cs1 (centres undefined)	Condition not met
CCC1OC(=O)CC(O)C(C)C(OC2OC(C)C(O)C(N(C)C)C2O)C(CCN2CC(C)CC(C)C2)CC(C)C(=O)C=CC(C)=CC1COC1OC(C)C(O)C(OC)C1OC (centres undefined)	Condition not met
CCN(CCc1ccccn1)C(=O)c1cc(-c2cnc(N)nc2)nc2c(C)cccc12	Condition not met
OCC(O)C(O)CO (centres undefined)	Condition not met
O=C(Nc1cccc(Cl)c1)c1ccccn1	Condition met
COC(=O)NC(C)CNc1nccc(-c2cn(C(C)C)nc2-c2cc(Cl)cc(NS(C)(=O)=O)c2F)n1 (centres undefined)	Condition met
Cc1csc2ncnc(-c3cccc4cccnc34)c12	Condition not met
Cc1cc(CN(C)C(=O)c2cc(-c3cnn(C(C)C)c3)nc3cc(F)ccc23)on1	Condition not met
CC[C@@H](C)[C@H]1O[C@]2(CC[C@@H]1C)C[C@@H]1C[C@@H](C/C=C(\C)[C@@H](O[C@H]3C[C@H](OC)[C@@H](O[C@H]4C[C@H](OC)[C@@H](O)[C@H](C)O4)[C@H](C)O3)[C@@H](C)/C=C/C=C3\CO[C@@H]4[C@H](O)C(C)=C[C@@H](C(=O)O1)[C@]34O)O2	Condition met
O=C(OC1C[N+]2(CCCOc3ccccc3)CCC1CC2)C(O)(c1cccs1)c1cccs1 (centres undefined)	Condition not met
CC1(C)CCC[C@@]2(C)[C@H]3CC(=O)O[C@]3(C)CC[C@@H]12	Condition not met

Entry source: PubChem BioAssay
